Would you mind telling me the reported melting point of each entry?

Value lookup for melting point; key = CCOC(=O)Cc1cnc(-c2cc3cccc(N(C)S(=O)(=O)c4cccs4)c3[nH]2)s1
126 to 127 °C

Another compound to check: CCCc1nnc2c(=O)n(C)c3ccc(OC)cc3n12
219 to 220 °C

Another compound to check: CCCC(=O)NCCC1CCc2c(OC)ccc3ccc(OC)c1c23 (stereo not given)
99 °C

Another compound to check: Cc1ccc(-c2ccc3c(c2)C=C(C(=O)Nc2ccc(CSC4CCCCC4)cc2)CCO3)cc1
161 to 162 °C

Another compound to check: COC(=O)c1nc2ccc(NCCCN3CCC(OC(c4ccccc4)c4ccccc4)CC3)nn2n1
93 to 96 °C

Another compound to check: Cc1ccc(S(=O)(=O)NCCO)c(C)c1
70 to 72 °C

Another compound to check: CCCCN1C(=O)NC(=C(C)C)C1=O
130 °C

Another compound to check: CCN1CCC(C(C(N)=O)(c2ccccc2)c2ccccc2)C1 (stereo not given)
141 to 142 °C

Another compound to check: CCOc1nc(NC)nc(NC(=O)NS(=O)(=O)c2cccc3c2nnn3C)n1
203 to 209 °C

Another compound to check: C=Cc1cc(O[Si](C)(C)C(C)(C)C)cc2nc(-c3ccc(O[Si](C)(C)C(C)(C)C)c(F)c3)oc12
93 to 95 °C

Another compound to check: COC(=O)c1ccc(CNC(C)=O)c([N+](=O)[O-])c1
100 to 102 °C

Another compound to check: Cc1cc(-c2csc(-c3ccc(C(=O)O)cc3)n2)c(C)s1
239 to 240 °C

Another compound to check: CCc1nc2c(N)nc3ccccc3c2n1CCCCS(=O)(=O)N(C)C
193 to 195 °C

Another compound to check: CC1Cc2c(c(Br)cc(F)c2-n2c(=O)cc(C(F)(F)F)n(C)c2=O)O1 (stereo not given)
66 to 75.5 °C

Another compound to check: O=C1OC2CCC1CC2
125 to 126 °C

Another compound to check: CC1(C)CCC(C)(C)c2cc(-c3cccc(C#CC(=O)O)c3)ccc21
164 to 165 °C

Another compound to check: COc1cc(CCCCC2OC(=O)NC2=O)ccc1OCc1nc(-c2ccccc2)oc1C (stereo not given)
135 to 136 °C

Another compound to check: CC(CCn1c(=O)[nH]c2ccccc21)N1CCC(CC(=O)c2ccc(F)cc2)CC1 (stereo not given)
185 °C

Another compound to check: COc1ccc(S(=O)(=O)C(C)(Cc2ccc(OCCN3CCCCC3)cc2)C(N)=O)cc1 (stereo not given)
98 °C

Another compound to check: O=C1C(=O)c2ccccc2C2=C1SCC1(CCN(C(=O)c3ccoc3)CC1)O2
234 to 235 °C
